System: A549
Experiment: Antiproliferative activity against human A549 cells assessed as inhibition of cell proliferation at 10 uM by MTT assay
Format: functional

| Item Smiles | Assay System | inhibition at 10 µM, % |
| --- | --- | --- |
| O=S(=O)(c1ccc(-c2cnc(C3CC3)s2)cc1)N1CCc2ccccc21 | A549 | -10.1 |
| N#Cc1ccc2c(c1)CCN2S(=O)(=O)c1ccc(-c2cnc(C3CC3)o2)cc1 | A549 | 28.4 |
| O=S(=O)(c1ccc(-c2cnc(C3CC3)o2)cc1)N1CCc2cc(F)ccc21 | A549 | 36.1 |
| O=S(=O)(c1ccc(-c2nnc(C3CC3)o2)cc1)N1CCc2ccccc21 | A549 | 63.7 |

// provenance: ChEMBL document CHEMBL3352147
